- EXPERIMENTAL_SYSTEM: HLA-A*3101 (human)
- EXPERIMENTAL_PROTOCOL: competition with 125I-labelled probe peptide for purified HLA, gel filtration
ATTRIBUTE_MEASURED: IC50

1) RLVVDFSQFSR (modifications not checked) [peptide 26.0539 (HBV POL 376, …)]
7 nM
2) GVWIRTPPAYR (modifications not checked) [peptide 26.0535 (HBV X NUC FUS 299, …)]
3 nM
